Exercise: for every item that follows, state its recorded Percentage inhibition of ligand binding, Adrenergic α2A (0.1 μM).
- Assayed target: human recombinant adrenergic α2A receptor (Homo sapiens, UniProt P08913)
- Construct: expressed in transfected cells; host or cells: insect Sf9 cells
- Sequence (P08913 1-465): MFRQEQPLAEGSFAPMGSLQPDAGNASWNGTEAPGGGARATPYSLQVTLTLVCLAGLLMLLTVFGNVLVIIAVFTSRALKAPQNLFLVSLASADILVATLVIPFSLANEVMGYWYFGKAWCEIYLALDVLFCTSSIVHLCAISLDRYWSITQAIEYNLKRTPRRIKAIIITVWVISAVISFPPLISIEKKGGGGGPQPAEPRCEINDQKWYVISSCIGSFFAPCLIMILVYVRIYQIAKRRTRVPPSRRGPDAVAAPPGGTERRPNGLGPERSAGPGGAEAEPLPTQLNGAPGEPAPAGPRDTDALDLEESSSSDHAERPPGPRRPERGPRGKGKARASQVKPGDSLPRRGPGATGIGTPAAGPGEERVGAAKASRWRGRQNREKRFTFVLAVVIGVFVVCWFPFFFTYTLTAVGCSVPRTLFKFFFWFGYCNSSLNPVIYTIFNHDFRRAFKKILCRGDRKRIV
- Measurement protocol: Radioligand binding, adrenergic α2A ([3H]MK-912)
- Condition label: compound at 0.1 μM; [3H]MK-912; repeat datapoints each shown; 0.1 µM
Give a bare numeral; the unit % is implied.

Problem: Fill blank: measured Percentage inhibition of ligand binding, Adrenergic α2A (0.1 μM) of the molecule Cc1cnc2c(c1)c1c(n2CC(O)c2ccncc2)CCN2CCCC12 (single isomer, unassigned) [IV-209a] is ____.
Solution: 6

Problem: Sample Cc1ccc2c(c1)c1c(n2C2=C(c3ccc(C)s3)CCC2)CCN(C)C1 [compound 190] — what was its Percentage inhibition of ligand binding, Adrenergic α2A (0.1 μM)?
Solution: 89

Problem: Given the molecule Cc1ccc2c(c1)c1c(n2CC(C)(OCC(=O)O)c2cccnc2)CCN(C)C1 (single isomer, unassigned) [V-14a] , what is its reported Percentage inhibition of ligand binding, Adrenergic α2A (0.1 μM)?
Solution: 18

Problem: For the molecule shown here, Cc1ccc2c(c1)c1c(n2CC(C)(OC(=O)C(C)C)c2cccnc2)CCN(C)C1 (single isomer, unassigned) [146a] , give the reported Percentage inhibition of ligand binding, Adrenergic α2A (0.1 μM).
Solution: −1

Problem: Which value of Percentage inhibition of ligand binding, Adrenergic α2A (0.1 μM) has been reported for Cc1ccc(CCn2c3c(c4cc(Cl)cnc42)C2CCCN2CC3)cn1 (single isomer, unassigned) [137b] in the records?
Solution: 6

Problem: Bench note: what Percentage inhibition of ligand binding, Adrenergic α2A (0.1 μM) did Cc1cnc2c(c1)c1c(n2CCc2cccnc2)CCN2CCCC12 (single isomer, unassigned) [134b] show?
Solution: 29

Problem: Fill blank: measured Percentage inhibition of ligand binding, Adrenergic α2A (0.1 μM) of the molecule Cc1ccc2c(c1)c1c(n2CC(C)(N)c2cccnc2)CCN(C)C1 (single isomer, unassigned) [149a] is ____.
Solution: −4

Problem: Quick check: Percentage inhibition of ligand binding, Adrenergic α2A (0.1 μM) of C/C(=C\n1c2c(c3cc(C)ccc31)CN(C)CC2)c1sccc1C [compound 189] ?
Solution: 86

Problem: What value of Percentage inhibition of ligand binding, Adrenergic α2A (0.1 μM) has been reported for the following molecule? Cc1cnc2c(c1)c1c(n2CCc2cnc(C)nc2)CCN2CCCC12 (single isomer, unassigned) [IV-93b]
Solution: −1

Problem: // lookup Percentage inhibition of ligand binding, Adrenergic α2A (0.1 μM) for C/C(=C\n1c2c(c3cc(C)ccc31)C1CCCCN1CC2)c1ccc(F)cc1 (single isomer, unassigned) [199b]
Solution: 61

Problem: Reported Percentage inhibition of ligand binding, Adrenergic α2A (0.1 μM), molecule Cc1ccc2c(c1)c1c(n2CC(O)c2ccc(C#N)cc2)CCN(C)C1 (single isomer, unassigned) [142b] : ____
Solution: 63

Problem: Item under review: Cc1cc(C)c2c(c1)c1c(n2CC(O)c2ccncc2)CCN2CCCC12 (single isomer, unassigned) [II-125b] . Reported Percentage inhibition of ligand binding, Adrenergic α2A (0.1 μM)?
Solution: 98

Problem: Give its Percentage inhibition of ligand binding, Adrenergic α2A (0.1 μM) value. Item: CC(O)(Cn1c2c(c3cc(Cl)ccc31)CN(C1CCC1)CC2)c1cccnc1 (single isomer, unassigned) [II-118b]
Solution: 5

Problem: For the molecule shown here, Cc1ccc2c(c1)c1c(n2CC(O)c2ccc(C#N)nc2)CCN(C)C1 (single isomer, unassigned) [140b] , give the reported Percentage inhibition of ligand binding, Adrenergic α2A (0.1 μM).
Solution: 3
